# assay-system: RARγ (Homo sapiens, UniProt P13631)
# Sequence (P13631 whole entry): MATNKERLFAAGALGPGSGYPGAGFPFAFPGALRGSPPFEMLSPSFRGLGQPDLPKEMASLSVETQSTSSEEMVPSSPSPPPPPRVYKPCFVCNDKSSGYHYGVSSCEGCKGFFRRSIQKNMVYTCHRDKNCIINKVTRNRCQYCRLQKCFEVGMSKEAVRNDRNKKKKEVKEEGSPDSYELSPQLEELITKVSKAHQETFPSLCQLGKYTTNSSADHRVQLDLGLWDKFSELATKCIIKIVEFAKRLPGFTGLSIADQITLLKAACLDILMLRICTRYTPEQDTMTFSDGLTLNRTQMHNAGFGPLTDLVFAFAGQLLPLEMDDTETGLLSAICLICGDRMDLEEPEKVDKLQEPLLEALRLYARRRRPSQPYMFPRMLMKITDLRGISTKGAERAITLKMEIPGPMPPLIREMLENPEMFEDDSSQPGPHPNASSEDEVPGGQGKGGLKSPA
# protocol-description: Holoreceptor transactivation assay
# Assay type: cell-based
# Set-up: expressed in transfected cells; host or cells: CV1 cells
# conditions-used: relative to all trans retinoic acid; read-out: Transactivation Assay Efficacy (% of RA activity) RARγ
# Excerpt: A holoreceptor transactivation assay and a ligand binding assay which measure the antagonist/agonist like activity of the compounds of the invention, or their ability to bind to the several retinoid receptor subtypes, respectively, are described in published PCT Application No. WO93/11755 (particularly on pages 30-33 and 37-41) published on Jun. 24, 1993, the specification of which is also incorporated herein by reference. […]
Classification field: Yes = Emax at or over 3%; No = Emax under 3%.

>>> print(df.to_string())
                                    compound  label_class
 0  Cc1ccc(C2=CCC(C)(C)c3ccc(C#Cc4ccc(C(=O)O)cc4)cc32)cc1 [Compound 60]          Yes
 1  CC1(C)CC=C(c2ccc(O)cc2)c2cc(C#Cc3ccc(C(=O)O)cc3)ccc21 [Compound 29]          Yes
 2  Cc1ccc(C2=CCC(C)(C)c3ccc(C(=O)Nc4ccc(C(=O)O)cc4)cc32)cc1 [Compound 36]           No
 3  CC(C)(C)c1ccc(C2=CCC(C)(C)c3ccc(C#Cc4ccc(C(=O)O)cc4)cc32)cc1 [Compound 61]           No
 4  Cc1ccc(C2=CCC(C)(C)c3ccc(/C=C/c4ccc(C(=O)O)cc4)cc32)cc1 [Compound 45]          Yes
 5  COc1ccc(C2=CCC(C)(C)c3ccc(C#Cc4ccc(C(=O)O)cc4)cc32)cc1 [Compound 22]           No
 6  CC1(C)CC=C(c2cccc(O)c2)c2cc(C#Cc3ccc(C(=O)O)cc3)ccc21 [Compound 28]           No
 7  Cc1ccc(C2=CCC(C)(C)c3ccc(C#Cc4ccc(C(=O)O)cc4)cc32)s1 [Compound 34]           No
 8  Cc1csc(C2=CCC(C)(C)c3ccc(C#Cc4ccc(C(=O)O)cc4)cc32)n1 [Compound 31]           No
 9  CC1(C)CC=C(c2ccccc2)c2ccc(C(=O)C=Cc3ccc(C(=O)O)cc3)cc21 [Compound 103]          Yes
10  Cc1cnc(C2=CCC(C)(C)c3ccc(C#Cc4ccc(C(=O)O)cc4)cc32)s1 [Compound 30]           No
11  Cc1ccccc1C1=CCC(C)(C)c2ccc(C#Cc3ccc(C(=O)O)cc3)cc21 [Compound 27]          Yes
12  Cc1ccc(C2=CCC(C)(C)c3ccc(C(=O)Oc4ccc(C(=O)O)cc4)cc32)cc1 [Compound 39]          Yes
13  Cc1ccc(C2=CCC(C)(C)c3ccc(C#Cc4ccc(C(=O)O)cc4)cc32)cn1 [Compound 18]           No
14  Cc1cccc(C2=CCC(C)(C)c3ccc(C#Cc4ccc(C(=O)O)cc4)cc32)c1 [Compound 20]           No
15  Cc1ccc(C2=CCC(C)(C)c3ccc(C(=S)Nc4ccc(C(=O)O)c(F)c4)cc32)cc1 [Compound 63]          Yes
16  CC1(C)CC=C(c2cccnc2)c2cc(C#Cc3ccc(C(=O)O)cc3)ccc21 [Compound 26]           No
17  Cc1ccc(C2=CCC(C)(C)c3cc(C(=O)C=Cc4ccc(C(=O)O)cc4)ccc32)cc1 [Compound 101]           No
18  Cc1nc(C2=CCC(C)(C)c3ccc(C#Cc4ccc(C(=O)O)cc4)cc32)sc1C [Compound 32]           No
19  CCc1ccc(C2=CCC(C)(C)c3ccc(C#Cc4ccc(C(=O)O)cc4)cc32)cc1 [Compound 21]           No
20  Cc1cc(C)cc(C2=CCC(C)(C)c3ccc(C#Cc4ccc(C(=O)O)cc4)cc32)c1 [Compound 24]          Yes
21  Cc1ccc(C2=CCC(C)(C)c3ccc(C(=O)Nc4ccc(C(=O)O)c(F)c4)cc32)cc1 [Compound 41]          Yes

---

# assay-system: UniProtKB P10276
# Sequence (P10276 whole entry): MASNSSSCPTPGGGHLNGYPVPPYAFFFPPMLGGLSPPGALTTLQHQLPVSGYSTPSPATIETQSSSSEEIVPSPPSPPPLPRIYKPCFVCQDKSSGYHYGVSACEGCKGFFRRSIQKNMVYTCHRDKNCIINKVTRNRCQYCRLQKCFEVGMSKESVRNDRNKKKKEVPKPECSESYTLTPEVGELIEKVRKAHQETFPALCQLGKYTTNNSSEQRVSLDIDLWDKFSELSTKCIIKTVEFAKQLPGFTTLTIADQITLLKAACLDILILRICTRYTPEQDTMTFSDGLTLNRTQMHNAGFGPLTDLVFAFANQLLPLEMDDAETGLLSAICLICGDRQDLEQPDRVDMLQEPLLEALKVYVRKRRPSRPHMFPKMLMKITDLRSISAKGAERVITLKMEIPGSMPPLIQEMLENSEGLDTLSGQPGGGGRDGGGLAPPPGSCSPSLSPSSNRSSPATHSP
# protocol-description: Ligand binding assay
# Set-up: expressed in transfected cells; host or cells: CV1 cells
# conditions-used: read-out: Kd (nanomolar) RARα
# Description: A holoreceptor transactivation assay and a ligand binding assay which measure the antagonist/agonist like activity of the compounds of the invention, or their ability to bind to the several retinoid receptor subtypes, respectively, are described in published PCT Application No. WO93/11755 (particularly on pages 30-33 and 37-41) published on Jun. 24, 1993, the specification of which is also incorporated herein by reference. […]
pKd: −log10 of the molar value.
recorded-endpoint: pKd

In [3]: df
Out[3]:
                                smiles_data      assay_system  recorded_endpoint  reported
0  COc1ccc(C2=CCC(C)(C)c3ccc(C#Cc4ccc(C(=O)O)cc4)cc32)cc1  UniProtKB P10276                pKd      7.62
1  CC(C)(C)c1ccc(C2=CCC(C)(C)c3ccc(C#Cc4ccc(C(=O)O)cc4)cc32)cc1  UniProtKB P10276                pKd      7.02
2  Cc1ccc(C2=CCC(C)(C)c3ccc(C#Cc4ccc(C(=O)O)cc4)cc32)cc1  UniProtKB P10276                pKd      8.82
3  Cc1ccc(C2=CCC(C)(C)c3cc(C(=O)C=Cc4ccc(C(=O)O)cc4)ccc32)cc1  UniProtKB P10276                pKd      6.12

---

# assay-system: RARγ (Homo sapiens, UniProt P13631)
# protocol-description: [3H]-ATRA displacement assay, baculovirus expressed receptor
# Format: binding
# Set-up: made in house; host or cells: baculovirus expression system
# conditions-used: Table 12; relative affinity, competition of 3H-ATRA binding, Cheng-Prussof equation
Threshold-based label: Kd under 30 nM gives 1 (yes), Kd not under 30 nM gives 0 (no).

>>> df
                                   compound  label_class
0  CC1(C)CC=C(c2ccc(C(F)(F)F)cc2)c2cc(C#Cc3ccc(C(=O)O)cc3)ccc21 [Compound 23]      1 (yes)
1  Cc1ccc(C2=CCC(C)(C)c3ccc(C#Cc4ccc(C(=O)O)cc4)cc32)cc1 [Compound 60]      1 (yes)
2  CC1(C)CC=C(c2ccc(Cl)cc2)c2cc(C#Cc3ccc(C(=O)O)cc3)ccc21 [Compound 25]      1 (yes)
3  CC1(C)CC=C(c2cccs2)c2cc(C#Cc3ccc(C(=O)O)cc3)ccc21 [Compound 34a]       0 (no)

---

# assay-system: UniProt:P10276
# protocol-description: Ligand binding assay
# Design: expressed in transfected cells; host or cells: CV1 cells
# conditions-used: read-out: Kd (nanomolar) RARα
pKd: −log10 of the molar value.
recorded-endpoint: pKd

                                smiles_data  recorded_endpoint  reported
0  CC(/C=C/C=C(\C)c1ccc2c(c1)C(c1ccc(C)cc1)=CCC2(C)C)=C\C(=O)O                pKd      7.22
1  Cc1ccc(C2=CCC(C)(C)c3ccc(C(=O)Oc4ccc(C(=O)O)cc4)cc32)cc1                pKd      7.17
2  Cc1cccc(C2=CCC(C)(C)c3ccc(C#Cc4ccc(C(=O)O)cc4)cc32)c1                pKd      6.89
3  CC1(C)CC=C(c2ccc(C(F)(F)F)cc2)c2cc(C#Cc3ccc(C(=O)O)cc3)ccc21                pKd      7.49
4  CC1(C)CC=C(c2cccc(O)c2)c2cc(C#Cc3ccc(C(=O)O)cc3)ccc21                pKd      6.17
5  Cc1ccccc1C1=CCC(C)(C)c2ccc(C#Cc3ccc(C(=O)O)cc3)cc21                pKd      7.16
6  Cc1ccc(C2=CCC(C)(C)c3ccc(C#Cc4ccc(C(=O)O)cc4)cc32)cn1                pKd      7.62
7  Cc1ccc(C2=CCC(C)(C)c3ccc(C(=S)Nc4ccc(C(=O)O)c(F)c4)cc32)cc1                pKd      6.88

---

# assay-system: UniProt:P10826
# Sequence (P10826 whole entry): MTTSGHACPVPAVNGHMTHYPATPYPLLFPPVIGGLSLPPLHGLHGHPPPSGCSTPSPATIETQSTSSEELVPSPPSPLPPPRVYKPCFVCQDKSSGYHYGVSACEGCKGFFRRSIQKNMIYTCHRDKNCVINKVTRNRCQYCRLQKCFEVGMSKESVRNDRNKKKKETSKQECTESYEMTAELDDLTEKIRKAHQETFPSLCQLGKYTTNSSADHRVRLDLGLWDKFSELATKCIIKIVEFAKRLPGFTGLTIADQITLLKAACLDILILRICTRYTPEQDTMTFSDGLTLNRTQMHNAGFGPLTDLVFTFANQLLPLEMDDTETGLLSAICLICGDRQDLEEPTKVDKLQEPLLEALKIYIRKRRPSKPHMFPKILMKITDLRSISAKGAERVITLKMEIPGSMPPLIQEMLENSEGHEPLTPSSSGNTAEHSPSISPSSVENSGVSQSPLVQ
# protocol-description: Ligand binding assay
# conditions-used: read-out: Kd (nanomolar) RARβ
pKd: −log10 of the molar value.
recorded-endpoint: pKd

>>> df
                                smiles_data    assay_system  recorded_endpoint  reported
0  CC1(C)CC=C(c2cccc(O)c2)c2cc(C#Cc3ccc(C(=O)O)cc3)ccc21  UniProt:P10826                pKd      7.11
1  Cc1ccc(C2=CCC(C)(C)c3ccc(C(=O)Nc4ccc(C(=O)O)cc4)cc32)cc1  UniProt:P10826                pKd      6.26
2  Cc1ccc(C2=CCC(C)(C)c3cc(C(=O)C=Cc4ccc(C(=O)O)cc4)ccc32)cc1  UniProt:P10826                pKd      6.84
3  CCc1ccc(C2=CCC(C)(C)c3ccc(C#Cc4ccc(C(=O)O)cc4)cc32)cc1  UniProt:P10826                pKd      8.05
4  CC1(C)CC=C(c2ccc(O)cc2)c2cc(C#Cc3ccc(C(=O)O)cc3)ccc21  UniProt:P10826                pKd      7.32
5  Cc1csc(C2=CCC(C)(C)c3ccc(C#Cc4ccc(C(=O)O)cc4)cc32)n1  UniProt:P10826                pKd      7.28
6  CC(/C=C/C=C(\C)c1ccc2c(c1)C(c1ccc(C)cc1)=CCC2(C)C)=C\C(=O)O  UniProt:P10826                pKd      7.20
7  CC(C)(C)c1ccc(C2=CCC(C)(C)c3ccc(C#Cc4ccc(C(=O)O)cc4)cc32)cc1  UniProt:P10826                pKd      7.82

These data points were gathered from patent US6469028B1.
